biological target: Nitric oxide synthase 1 (Homo sapiens)
Sequence (P29475 whole entry): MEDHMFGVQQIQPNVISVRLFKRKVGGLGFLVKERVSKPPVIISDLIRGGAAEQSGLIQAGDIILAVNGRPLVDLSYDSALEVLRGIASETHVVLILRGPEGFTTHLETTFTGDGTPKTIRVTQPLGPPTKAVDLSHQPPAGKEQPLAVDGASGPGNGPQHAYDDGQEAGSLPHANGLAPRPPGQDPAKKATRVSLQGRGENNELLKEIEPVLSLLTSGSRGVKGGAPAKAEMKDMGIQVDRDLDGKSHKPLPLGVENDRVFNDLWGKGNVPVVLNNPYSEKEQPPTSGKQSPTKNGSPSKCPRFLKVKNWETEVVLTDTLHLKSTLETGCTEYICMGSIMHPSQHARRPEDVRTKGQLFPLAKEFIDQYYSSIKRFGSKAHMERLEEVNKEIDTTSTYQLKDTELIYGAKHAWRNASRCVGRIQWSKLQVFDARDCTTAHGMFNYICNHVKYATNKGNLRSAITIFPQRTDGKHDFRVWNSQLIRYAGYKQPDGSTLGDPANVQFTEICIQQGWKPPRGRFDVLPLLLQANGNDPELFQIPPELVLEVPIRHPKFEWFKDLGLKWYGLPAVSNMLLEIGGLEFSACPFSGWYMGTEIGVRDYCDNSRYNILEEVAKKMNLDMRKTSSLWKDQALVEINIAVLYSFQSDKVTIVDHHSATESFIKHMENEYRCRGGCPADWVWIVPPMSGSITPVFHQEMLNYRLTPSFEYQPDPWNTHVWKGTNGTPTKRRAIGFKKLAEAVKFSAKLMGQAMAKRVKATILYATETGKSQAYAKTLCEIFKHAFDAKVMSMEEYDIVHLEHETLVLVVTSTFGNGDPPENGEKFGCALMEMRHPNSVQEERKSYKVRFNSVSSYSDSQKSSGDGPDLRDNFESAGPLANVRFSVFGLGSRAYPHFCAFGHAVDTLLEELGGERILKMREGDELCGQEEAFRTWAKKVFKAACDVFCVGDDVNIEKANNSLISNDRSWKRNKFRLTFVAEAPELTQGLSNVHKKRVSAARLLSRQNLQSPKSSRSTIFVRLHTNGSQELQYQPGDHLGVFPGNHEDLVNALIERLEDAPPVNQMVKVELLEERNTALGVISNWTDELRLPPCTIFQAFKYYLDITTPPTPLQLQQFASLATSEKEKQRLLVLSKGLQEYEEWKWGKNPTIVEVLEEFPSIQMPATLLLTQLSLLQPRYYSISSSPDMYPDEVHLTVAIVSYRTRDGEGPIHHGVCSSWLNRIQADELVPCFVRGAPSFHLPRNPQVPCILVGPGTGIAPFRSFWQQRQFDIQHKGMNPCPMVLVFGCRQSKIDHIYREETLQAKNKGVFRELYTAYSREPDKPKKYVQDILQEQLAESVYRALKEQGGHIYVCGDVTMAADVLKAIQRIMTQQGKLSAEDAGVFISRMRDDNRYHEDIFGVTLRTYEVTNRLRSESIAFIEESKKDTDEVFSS
MEASURED_METRIC: IC50 (µM)
Entry rule: numbers only, all in µM.

# input Request the reported IC50 associated with "CS/C(=N/O)NCCC[C@H](N)C(=O)O"
# output 6.7

====

Nitric oxide synthase, inducible (Mus musculus, UniProt P29477) data, read-out Ki
Sequence (P29477 whole entry): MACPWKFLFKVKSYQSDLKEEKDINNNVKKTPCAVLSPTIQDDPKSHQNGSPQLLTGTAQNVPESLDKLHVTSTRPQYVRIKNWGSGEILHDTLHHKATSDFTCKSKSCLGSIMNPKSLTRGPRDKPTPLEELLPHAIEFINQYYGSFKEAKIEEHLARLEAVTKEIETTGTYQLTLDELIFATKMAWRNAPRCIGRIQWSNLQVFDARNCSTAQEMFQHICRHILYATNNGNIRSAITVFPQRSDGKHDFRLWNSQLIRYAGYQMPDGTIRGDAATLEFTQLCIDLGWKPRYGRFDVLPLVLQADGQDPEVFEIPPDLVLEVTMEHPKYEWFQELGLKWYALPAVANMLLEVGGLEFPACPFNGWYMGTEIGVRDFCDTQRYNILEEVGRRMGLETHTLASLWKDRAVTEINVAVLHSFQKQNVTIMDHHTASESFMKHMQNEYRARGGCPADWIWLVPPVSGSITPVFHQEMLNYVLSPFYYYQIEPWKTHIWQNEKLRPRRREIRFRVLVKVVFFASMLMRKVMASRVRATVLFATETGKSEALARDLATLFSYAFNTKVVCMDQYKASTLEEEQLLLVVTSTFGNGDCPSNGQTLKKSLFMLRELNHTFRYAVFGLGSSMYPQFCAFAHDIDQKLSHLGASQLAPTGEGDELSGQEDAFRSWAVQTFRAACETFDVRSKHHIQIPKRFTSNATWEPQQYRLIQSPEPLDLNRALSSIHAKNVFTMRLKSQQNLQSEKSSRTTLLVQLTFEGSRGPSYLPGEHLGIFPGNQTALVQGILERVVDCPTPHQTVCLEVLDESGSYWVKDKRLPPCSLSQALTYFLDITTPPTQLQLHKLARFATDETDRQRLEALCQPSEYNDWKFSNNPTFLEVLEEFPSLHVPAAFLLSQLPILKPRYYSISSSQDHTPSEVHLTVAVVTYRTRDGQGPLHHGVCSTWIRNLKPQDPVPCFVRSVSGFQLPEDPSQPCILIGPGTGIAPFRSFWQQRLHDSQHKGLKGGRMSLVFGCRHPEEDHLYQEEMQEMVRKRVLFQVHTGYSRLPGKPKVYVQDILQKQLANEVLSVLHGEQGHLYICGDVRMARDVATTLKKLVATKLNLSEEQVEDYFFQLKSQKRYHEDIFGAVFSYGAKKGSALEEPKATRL
Provide the measurement as a number trailed by its unit.

Worked cases, answers included:
{"SMILES_REPR": "NNC(=S)NCCC[C@H](N)C(=O)O", "Ki": "202 µM"}
{"SMILES_REPR": "CS/C(=N/N)NCCC[C@H](N)C(=O)O", "Ki": "58 µM"}

Now turn to the next molecule.
# input Request the reported Ki associated with "CS/C(=N/O)NCCC[C@H](N)C(=O)O"
# output 7 µM

====

molecular target: Nitric oxide synthase 3 (Homo sapiens, UniProt P29474)
Sequence (P29474 whole entry): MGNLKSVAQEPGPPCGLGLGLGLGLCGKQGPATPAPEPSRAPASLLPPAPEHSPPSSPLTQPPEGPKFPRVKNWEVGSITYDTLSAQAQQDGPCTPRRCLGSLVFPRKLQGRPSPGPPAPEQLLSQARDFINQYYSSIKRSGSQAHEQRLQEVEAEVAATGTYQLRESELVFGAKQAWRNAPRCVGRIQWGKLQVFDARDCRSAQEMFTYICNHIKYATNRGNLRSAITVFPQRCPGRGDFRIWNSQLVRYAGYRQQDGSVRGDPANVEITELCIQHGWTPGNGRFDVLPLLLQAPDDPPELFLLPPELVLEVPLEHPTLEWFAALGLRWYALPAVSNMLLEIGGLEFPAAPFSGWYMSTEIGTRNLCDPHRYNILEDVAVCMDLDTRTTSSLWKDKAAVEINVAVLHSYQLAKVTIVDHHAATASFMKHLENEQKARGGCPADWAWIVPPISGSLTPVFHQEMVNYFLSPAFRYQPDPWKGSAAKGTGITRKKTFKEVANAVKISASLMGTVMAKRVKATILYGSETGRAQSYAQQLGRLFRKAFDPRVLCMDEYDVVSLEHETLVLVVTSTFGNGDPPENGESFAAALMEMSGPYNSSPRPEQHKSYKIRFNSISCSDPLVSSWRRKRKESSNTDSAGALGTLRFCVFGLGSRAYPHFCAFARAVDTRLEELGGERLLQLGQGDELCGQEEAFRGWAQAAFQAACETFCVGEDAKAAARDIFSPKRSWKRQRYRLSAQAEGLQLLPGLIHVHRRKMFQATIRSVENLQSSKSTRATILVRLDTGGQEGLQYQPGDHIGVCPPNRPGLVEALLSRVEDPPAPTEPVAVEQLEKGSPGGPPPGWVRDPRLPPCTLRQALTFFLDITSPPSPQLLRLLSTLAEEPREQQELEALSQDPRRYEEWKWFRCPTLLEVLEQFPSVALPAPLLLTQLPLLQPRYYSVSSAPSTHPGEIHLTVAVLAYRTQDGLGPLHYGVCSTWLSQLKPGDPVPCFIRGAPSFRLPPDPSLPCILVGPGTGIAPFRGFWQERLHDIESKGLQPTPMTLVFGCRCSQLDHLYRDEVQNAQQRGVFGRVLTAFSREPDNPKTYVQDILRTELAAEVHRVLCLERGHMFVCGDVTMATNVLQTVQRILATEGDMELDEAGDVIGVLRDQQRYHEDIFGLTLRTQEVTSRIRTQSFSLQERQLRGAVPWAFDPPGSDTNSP
MEASURED_METRIC: IC50 (µM)
Entry rule: numbers only, all in µM.

# input Request the reported IC50 associated with "CS/C(=N/O)NCCC[C@H](N)C(=O)O"
# output 19.7
